Molecular target: Orexin/Hypocretin receptor type 1 (Homo sapiens, UniProt O43613);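 further: antagonism measured against Orexin-A challenge at about its EC80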
Sequence (O43613 whole entry): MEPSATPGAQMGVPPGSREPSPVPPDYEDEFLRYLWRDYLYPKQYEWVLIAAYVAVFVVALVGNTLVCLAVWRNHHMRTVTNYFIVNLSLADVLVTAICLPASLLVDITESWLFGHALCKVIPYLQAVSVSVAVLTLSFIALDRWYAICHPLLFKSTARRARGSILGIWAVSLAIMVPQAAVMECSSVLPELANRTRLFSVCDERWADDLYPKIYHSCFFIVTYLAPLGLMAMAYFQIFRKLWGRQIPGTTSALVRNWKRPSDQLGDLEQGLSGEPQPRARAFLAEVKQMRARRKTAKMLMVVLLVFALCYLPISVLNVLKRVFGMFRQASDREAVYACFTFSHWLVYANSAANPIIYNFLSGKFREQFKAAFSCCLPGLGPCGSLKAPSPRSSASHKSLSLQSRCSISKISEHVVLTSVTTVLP
Assay: Homogeneous Time Resolved Fluorescence (HTRF)-based cell-based high throughput dose response assay for antagonists of the orexin 1 receptor (OX1R; HCRTR1). [Related pubchem assays (depositor defined):AID434989, AID435008, AID463079, AID485270, AID492963, AID492964, AID492965, AID493232, AID504717, AID504718]
Assay type: functional
The source made the active and inactive calls.
metric: IC50

Worked examples, 3 compounds total:
compound.string	assay.system	endpoint.value
COC(=O)c1ccccc1NC(=O)c1sc(=S)n(C)c1N	Orexin/Hypocretin receptor type 1 (Homo sapiens, UniProt O43613)	407 nM (active)
Cc1nn(-c2ccccc2)c(C)c1/C=N/NC(=O)c1cc(-c2cccs2)[nH]n1	Orexin/Hypocretin receptor type 1 (Homo sapiens, UniProt O43613)	2990 nM (active)
O=C(N/N=C/c1c(Cl)[nH]c2ccccc12)c1sc2ccccc2c1Cl	Orexin/Hypocretin receptor type 1 (Homo sapiens, UniProt O43613)	2140 nM (active)

Now look at this entry.
// IC50 lookup, key: Cc1c(C(=O)Nc2ccc(N3CCOCC3)cc2)oc2ccccc12
277 nM (active)

---

Biological target: UniProt Q8VNN2
Sequence (Q8VNN2 whole entry): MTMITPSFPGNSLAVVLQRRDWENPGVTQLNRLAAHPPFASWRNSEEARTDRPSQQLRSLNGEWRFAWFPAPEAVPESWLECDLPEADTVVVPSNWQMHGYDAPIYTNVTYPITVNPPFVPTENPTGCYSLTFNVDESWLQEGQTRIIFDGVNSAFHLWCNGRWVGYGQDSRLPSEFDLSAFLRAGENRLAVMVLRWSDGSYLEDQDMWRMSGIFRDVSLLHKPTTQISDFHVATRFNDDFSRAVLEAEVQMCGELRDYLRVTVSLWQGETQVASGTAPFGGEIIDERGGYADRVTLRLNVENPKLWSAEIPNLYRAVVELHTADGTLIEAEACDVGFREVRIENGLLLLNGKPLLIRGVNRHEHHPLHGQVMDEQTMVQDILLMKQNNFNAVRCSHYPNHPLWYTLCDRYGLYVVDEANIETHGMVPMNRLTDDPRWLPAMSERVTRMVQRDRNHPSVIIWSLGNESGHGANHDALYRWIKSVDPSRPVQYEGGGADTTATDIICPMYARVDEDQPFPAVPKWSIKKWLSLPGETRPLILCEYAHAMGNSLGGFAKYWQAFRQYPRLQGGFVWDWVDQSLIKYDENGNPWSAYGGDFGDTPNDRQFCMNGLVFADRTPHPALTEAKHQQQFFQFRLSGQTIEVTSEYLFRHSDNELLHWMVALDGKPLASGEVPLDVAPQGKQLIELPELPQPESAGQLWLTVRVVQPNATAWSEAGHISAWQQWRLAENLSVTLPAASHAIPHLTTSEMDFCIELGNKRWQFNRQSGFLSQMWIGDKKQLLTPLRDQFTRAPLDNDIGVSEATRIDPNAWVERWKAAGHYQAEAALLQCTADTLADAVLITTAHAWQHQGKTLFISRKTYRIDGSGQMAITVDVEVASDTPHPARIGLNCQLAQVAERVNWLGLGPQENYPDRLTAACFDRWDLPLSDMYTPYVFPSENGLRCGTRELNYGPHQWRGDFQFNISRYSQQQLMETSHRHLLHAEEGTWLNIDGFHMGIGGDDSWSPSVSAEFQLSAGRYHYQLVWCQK
Test: Dose response counterscreen for EBI2 assay utilizing the enzyme, b-galactosidase.
Assay type: functional
The source made the active and inactive calls.
# output must be one of TRUE = active, FALSE = inactive

Would you please look over these solved cases?
compound.string	label.class
O=[N+]([O-])c1ccc(NN=Cc2cc(Br)ccc2O)nc1	TRUE
COC(=O)c1ccc(/N=c2\sc(C(=O)OC)cc(=O)n2C)cc1	FALSE
O=C(/C=C/c1ccc(Cl)cc1)N1CCN(CCN2C(=O)c3cccc4cccc(c34)C2=O)CC1	FALSE

As a next step, examine the compound that follows.
Query: recorded result category for COc1ccc(/C=N/N=C/c2cnc(O)c(C#N)c2Nc2ccccc2)cc1 in this test
FALSE

---

Listing: IC50 of selected compounds
Molecular target: Protein skinhead-1 (Caenorhabditis elegans, UniProt P34707)
Sequence (P34707 whole entry): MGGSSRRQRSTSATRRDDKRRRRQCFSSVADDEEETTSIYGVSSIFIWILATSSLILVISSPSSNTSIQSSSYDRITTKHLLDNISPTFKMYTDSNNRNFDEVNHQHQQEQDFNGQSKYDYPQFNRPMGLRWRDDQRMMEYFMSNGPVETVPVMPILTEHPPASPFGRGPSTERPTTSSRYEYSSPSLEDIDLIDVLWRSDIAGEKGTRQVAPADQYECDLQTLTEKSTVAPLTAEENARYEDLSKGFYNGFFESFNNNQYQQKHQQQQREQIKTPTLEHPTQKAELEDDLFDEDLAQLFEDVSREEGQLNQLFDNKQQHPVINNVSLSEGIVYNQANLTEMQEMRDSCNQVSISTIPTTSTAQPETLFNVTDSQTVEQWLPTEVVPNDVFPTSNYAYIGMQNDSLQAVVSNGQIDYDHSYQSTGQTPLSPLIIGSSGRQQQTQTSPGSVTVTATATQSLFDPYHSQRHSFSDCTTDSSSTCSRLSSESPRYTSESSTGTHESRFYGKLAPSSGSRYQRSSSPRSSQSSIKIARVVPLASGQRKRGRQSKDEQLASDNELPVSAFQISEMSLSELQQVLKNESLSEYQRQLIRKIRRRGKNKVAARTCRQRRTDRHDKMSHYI
Type: functional
The source made the active and inactive calls.

// IC50 lookup, key: c1ccc(-n2nnc(-c3nccs3)n2)cc1
88.2 µM (inactive)

// IC50 lookup, key: CC1CC(C)CN(C(=O)c2ccc3c(c2NCCO)C(=O)c2ccccc2C3=O)C1 (stereo not drawn)
> 100 µM (inactive)

// IC50 lookup, key: O=C(c1cccc(F)c1)N1CCN(c2cccc(C(F)(F)F)c2)CC1
> 100 µM (inactive)

// IC50 lookup, key: O=C1c2ccccc2C(=O)N1CCc1nc(-c2ccc(Cl)cc2)no1
94.6 µM (inactive)

// IC50 lookup, key: CCOc1ccc(NC(=O)CCN2CCN(C)CC2)cc1
> 100 µM (inactive)

// IC50 lookup, key: Cc1cc(F)ccc1S(=O)(=O)N1CCCOC1CNC(=O)C(=O)NCc1ccc2c(c1)OCO2 (stereo not drawn)
> 100 µM (inactive)

// IC50 lookup, key: COCCn1c(SCC(=O)Nc2cccc(C)c2)nnc1C(C)C
> 100 µM (inactive)

// IC50 lookup, key: Cc1cc(C(F)(F)F)n2ncc(-c3ccc(F)cc3)c2n1
> 100 µM (inactive)

---

Listing: IC50 of selected compounds
Target: Genome polyprotein (dengue virus type 2, UniProt P29990)
Test: flavivirus cap methylation enzyme inhibition – biochemical, confirmation dose response, primary screen (AID 588689)
Assay type: functional
Calls of active or inactive are those of the source.

Worked examples, 9 compounds total:
compound	IC50
C#CCOc1ccc(/C=C2/C(=O)ON=C2C)cc1Cl	97.1 µM (active)
Cc1cc(C(=O)O)ccc1-c1ccc(/C=C2\NC(=O)N(Cc3ccc(F)cc3)C2=O)o1	> 100 µM (active)
CCC(C)CCCCCCCCCCC(=O)O (stereo not given)	42 µM (active)
Cc1ccc(C)c(-n2c3nc(=O)[nH]c(=O)c-3cc3cc([N+](=O)[O-])ccc32)c1	14.9 µM (active)
COc1cccc(-c2coc3c(C)c4oc(=O)c(CCC(=O)O)c(C)c4cc23)c1	40.5 µM (active)
Cc1ccc([C@@H]2CC=C(C(=O)O)[C@H](c3ccc(Br)cc3)N2S(=O)(=O)c2ccc(C)cc2)cc1	42.5 µM (active)
COC(=O)CCC(=O)OC1(C)C(=O)C2=CN(CCCOC(C)C)C(c3ccc(OC)cc3)=CC2=C(Br)C1=O (stereo not given)	19.8 µM (active)
O=C1Nc2ccc(Cl)cc2C12Nc1ccccc1-c1nnc(SCc3ccccc3F)nc1O2 (stereo not given)	43.2 µM (active)
O=C1NC(=S)N/C1=C/C=C/c1ccccc1	99.8 µM (active)

Now look at this entry.
// IC50 lookup, key: CC1=C(C#N)c2nc(N)c(C#N)c(C)c2/C1=C\c1ccc(-c2ccccc2C(=O)O)o1
27.2 µM (active)

---

Tested on: Streptococcus
Assay: GAS UMAA2166 growth inhibition – luminescence, BacTiterGlo, counter-screen for streptokinase expression inhibitor project, dose response (AID 1915);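 further: potency for reduction of bacterial viability or growth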
Assay type: functional, organism-based
The source made the active and inactive calls.
metric: EC50

// EC50 lookup, key: C[C@H]1CC[C@@]2(C)[C@@H](CC[C@@H]3[C@@H]2CC[C@]2(C)[C@@H](O)CC[C@@H]32)C1
2.65 µM (active)

// EC50 lookup, key: CCCC(=O)NCCc1ccc(F)cc1
> 150 µM (not active)

// EC50 lookup, key: O=C(Nc1ccc(F)cc1)c1nc(O)c2nnn(Cc3cccc4ccccc34)c2n1
37.2 µM (active)

// EC50 lookup, key: O=C(COc1ccccc1-c1ccccc1)N/N=C/c1ccc2ccccc2c1
2.41 µM (active)

// EC50 lookup, key: Nc1ccc2[nH]c(-c3cc(Cl)c(N)c(Cl)c3)nc2c1
> 150 µM (not active)

// EC50 lookup, key: N#CCC(=O)Nc1ccc(C(=O)OC(C(=O)Nc2cc(C(F)(F)F)ccc2Cl)c2ccccc2)cc1 (configuration not stated)
6.92 µM (active)

// EC50 lookup, key: COc1cc(/C=C2\SC(Nc3cccnc3)=NC2=O)cc(OC)c1OC
68.5 µM (active)

---

Molecular target: Sentrin-specific protease 8 (Homo sapiens, UniProt Q96LD8);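 further: luminescence read-out of SENP8 inhibition, dose-response confirmation following an ultra-high-throughput screen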
Sequence (Q96LD8 whole entry): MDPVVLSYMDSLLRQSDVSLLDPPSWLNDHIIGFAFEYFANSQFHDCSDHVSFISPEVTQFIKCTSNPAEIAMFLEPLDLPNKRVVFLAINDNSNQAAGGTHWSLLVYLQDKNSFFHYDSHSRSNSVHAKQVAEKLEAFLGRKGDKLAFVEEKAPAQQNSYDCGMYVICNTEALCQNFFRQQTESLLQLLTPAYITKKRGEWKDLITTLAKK
Format: functional
Calls of active or inactive are those of the source.
# output must be one of active, inactive

compound.string	label.class
CCO/C=C1/C(=O)N(c2ccc(OC)cc2)C(=O)c2ccccc21	active
Fc1ccc(COc2ccc(C(=S)N3CCCC3)cc2)cc1	active
Cc1[nH]n(C(N)=S)c(=O)c1/N=N/c1ccccc1C(F)(F)F	active
Nc1nc(-c2ccccc2)nc2sc3c(c12)CCCC3	active
CCC(=O)N(C1=C(NC)C(=O)c2ccccc2C1=O)C(C)C	active

Query: recorded result category for O=[N+]([O-])c1cccnc1NCCNc1ncc(C(F)(F)F)cc1Cl in this test
active

Query: recorded result category for c1ccc(Nc2ncnc3c2oc2ccccc23)cc1 in this test
inactive

---

Listing: EC50 of selected compounds
Molecular target: Peroxisome proliferator-activated receptor gamma/Nuclear receptor coactivator 2 (Homo sapiens, UniProt P37231)
Sequence (P37231 whole entry): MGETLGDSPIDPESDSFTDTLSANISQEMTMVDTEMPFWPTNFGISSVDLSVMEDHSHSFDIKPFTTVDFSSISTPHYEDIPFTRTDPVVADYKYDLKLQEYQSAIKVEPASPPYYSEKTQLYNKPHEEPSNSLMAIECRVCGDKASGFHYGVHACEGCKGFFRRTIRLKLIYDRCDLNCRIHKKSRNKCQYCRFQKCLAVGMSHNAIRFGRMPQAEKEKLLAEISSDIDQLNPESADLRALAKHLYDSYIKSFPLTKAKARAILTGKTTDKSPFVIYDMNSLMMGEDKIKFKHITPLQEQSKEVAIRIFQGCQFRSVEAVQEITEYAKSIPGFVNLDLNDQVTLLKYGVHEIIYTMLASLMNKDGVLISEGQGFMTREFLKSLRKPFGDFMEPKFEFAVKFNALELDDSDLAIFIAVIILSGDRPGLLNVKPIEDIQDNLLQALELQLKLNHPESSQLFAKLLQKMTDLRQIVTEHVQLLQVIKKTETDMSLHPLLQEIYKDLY
Sequence (Q15596 whole entry, further chain): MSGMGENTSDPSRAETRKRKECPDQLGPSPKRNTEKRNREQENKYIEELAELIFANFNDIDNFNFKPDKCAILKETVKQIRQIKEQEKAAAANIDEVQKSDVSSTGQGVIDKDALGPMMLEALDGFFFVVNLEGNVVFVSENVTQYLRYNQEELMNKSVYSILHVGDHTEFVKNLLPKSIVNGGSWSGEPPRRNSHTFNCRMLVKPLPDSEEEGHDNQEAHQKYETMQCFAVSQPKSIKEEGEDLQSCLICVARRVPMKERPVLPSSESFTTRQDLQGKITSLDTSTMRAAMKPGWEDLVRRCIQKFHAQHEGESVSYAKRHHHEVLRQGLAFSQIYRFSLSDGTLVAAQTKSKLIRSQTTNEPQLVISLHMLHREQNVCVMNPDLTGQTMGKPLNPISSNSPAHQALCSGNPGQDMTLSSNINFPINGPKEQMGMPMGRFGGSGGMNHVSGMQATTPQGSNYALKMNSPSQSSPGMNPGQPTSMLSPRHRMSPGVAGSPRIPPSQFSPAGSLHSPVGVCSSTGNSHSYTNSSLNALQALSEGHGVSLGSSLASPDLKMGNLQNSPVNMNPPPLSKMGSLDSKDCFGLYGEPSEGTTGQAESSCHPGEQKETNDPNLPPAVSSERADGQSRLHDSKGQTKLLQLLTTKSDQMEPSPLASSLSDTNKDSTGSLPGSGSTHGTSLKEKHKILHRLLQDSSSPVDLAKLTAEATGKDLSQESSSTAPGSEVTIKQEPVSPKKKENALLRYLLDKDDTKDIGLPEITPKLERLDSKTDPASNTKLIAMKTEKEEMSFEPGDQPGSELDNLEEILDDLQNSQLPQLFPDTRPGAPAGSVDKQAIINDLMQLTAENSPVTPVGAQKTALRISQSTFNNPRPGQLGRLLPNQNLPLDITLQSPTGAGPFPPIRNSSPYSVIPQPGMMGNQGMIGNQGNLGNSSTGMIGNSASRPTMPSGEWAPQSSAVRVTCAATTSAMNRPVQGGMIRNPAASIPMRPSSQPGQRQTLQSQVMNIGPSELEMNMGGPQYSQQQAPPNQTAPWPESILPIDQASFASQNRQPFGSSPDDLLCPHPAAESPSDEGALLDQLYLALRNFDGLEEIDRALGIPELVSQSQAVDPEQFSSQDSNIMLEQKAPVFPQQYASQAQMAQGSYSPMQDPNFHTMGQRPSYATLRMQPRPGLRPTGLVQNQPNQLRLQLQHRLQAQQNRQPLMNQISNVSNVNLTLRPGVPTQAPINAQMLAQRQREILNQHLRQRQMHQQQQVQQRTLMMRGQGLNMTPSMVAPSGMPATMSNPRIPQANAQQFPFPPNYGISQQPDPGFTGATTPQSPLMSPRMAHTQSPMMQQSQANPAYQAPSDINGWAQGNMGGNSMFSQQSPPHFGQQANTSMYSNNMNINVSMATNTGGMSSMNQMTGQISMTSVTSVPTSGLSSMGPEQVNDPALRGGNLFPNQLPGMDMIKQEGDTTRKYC
Test: TR-FRET dose response biochemical High Throughput Screening assay for agonists of the steroid receptor coactivator 2 (SRC-2) recruitment by the peroxisome proliferator-activated receptor gamma (PPAR gamma): non-selective agonists. [Related pubchem assays: 1297, 1032 ]
Assay type: functional
The source made the active and inactive calls.

compound	EC50
Sc1nnc(-c2ccccn2)n1/N=C/c1ccc(-c2ccccc2Br)o1	2.83 µM (active)

// EC50 lookup, key: COc1cccc(C2C(C(=O)c3ccc(OC)c(OC)c3)=C(O)C(=O)N2c2cc(C)on2)c1 (centres undefined)
> 79.4 µM (not active)

// EC50 lookup, key: CCSc1cnn(-c2ccccc2)c(=O)c1SCC
7.53 µM (active)

// EC50 lookup, key: Sc1nnc(-c2cc(-c3ccco3)[nH]n2)n1-c1ccccc1
> 79.4 µM (not active)
